biological target: Fyn (UniProt P06241); experiment: phosphorylation enrichment, bacterial display (enrichment ratio); higher = better substrate or ligand; peptides without Tyr show the background;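 note: 11-residue human phosphosite peptides and single-mutation variants displayed on the E. coli surface, counted by deep sequencing, each peptide's frequency after selection divided by its frequency in the unselected input library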;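 note: frequency after pTyr selection over input frequency; kinase dosed for 20-30% of maximal phosphorylation in three min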
Sequence (P06241 whole entry, looked up): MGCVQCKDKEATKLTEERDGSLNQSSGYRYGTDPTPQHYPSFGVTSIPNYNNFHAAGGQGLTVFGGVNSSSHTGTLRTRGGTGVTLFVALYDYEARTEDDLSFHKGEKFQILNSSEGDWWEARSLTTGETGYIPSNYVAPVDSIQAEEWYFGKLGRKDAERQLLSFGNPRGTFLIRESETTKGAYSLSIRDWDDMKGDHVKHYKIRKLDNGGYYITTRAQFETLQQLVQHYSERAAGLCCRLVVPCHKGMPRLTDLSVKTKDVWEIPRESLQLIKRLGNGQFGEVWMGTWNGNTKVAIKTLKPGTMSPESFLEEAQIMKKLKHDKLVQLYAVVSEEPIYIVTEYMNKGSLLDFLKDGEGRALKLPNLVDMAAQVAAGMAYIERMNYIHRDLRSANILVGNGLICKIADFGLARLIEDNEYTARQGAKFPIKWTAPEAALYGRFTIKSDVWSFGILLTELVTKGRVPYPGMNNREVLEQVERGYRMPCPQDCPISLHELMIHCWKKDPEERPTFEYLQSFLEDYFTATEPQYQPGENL
Use y when the recorded phosphorylation enrichment is no lower than 0.5; use n when it is lower.

>>> labelvalue("LEFGDCHPLKP [VPS35L_Y32_Y32C]")
"y"
>>> labelvalue("KLPDAYERFIL [G6PD_Y437_L440F]")
"y"
>>> labelvalue("DLITAYRAHGF [PDHA1_Y118_H113D]")
"n"
>>> labelvalue("VATRWYRSPEL [CDKL5_Y177]")
"n"
>>> labelvalue("PPSGEYFGHCG [TRIP6_Y275_Q278H]")
"y"
>>> labelvalue("CEETFYTMKMN [MASP2_Y401_V405M]")
"y"
>>> labelvalue("QIGRKYKKVRF [F8_Y442_R437Q]")
"y"
>>> labelvalue("FLRKEYGGVNV [CBR3_Y81_L84V]")
"n"
>>> labelvalue("VYLGAYDCFLP [SLC22A5_Y486_R488C]")
"y"
>>> labelvalue("SLVVPYEPPEV [TP53_Y220_V216L]")
"y"
>>> labelvalue("SSREGYVSHHN [FAM83B_Y433]")
"n"
>>> labelvalue("ECKFLYSRKEG [PTPN11_Y263_L261F]")
"y"
>>> labelvalue("HLQDEYDFKCK [STAT1_Y170_D165H]")
"y"
>>> labelvalue("RKLVDYDSAQH [BIN1_Y150_R154Q]")
"n"
>>> labelvalue("SSPQLYLVPFL [TAF4_Y652_P651L]")
"y"
>>> labelvalue("DNPAKYFILES [DPP10_Y512]")
"n"
>>> labelvalue("LEKISYVFMKR [SSX7_Y48_YF]")
"y"
>>> labelvalue("HGQVNYEEFVQ [CALM2_Y139_D134H]")
"y"
>>> labelvalue("GLDGSYLLTDS [SH2D1A_Y29_R32T]")
"n"
>>> labelvalue("SVSVNYGDQVQ [GRAP_Y101]")
"n"
>>> labelvalue("NTGDDYDLYGG [PTPN11_Y63_Y62D]")
"y"
>>> labelvalue("ALDHKYHGGGG [HBB_Y146_A143D]")
"n"
>>> labelvalue("KLCHLYQDHMQ [WNT5A_Y86]")
"n"
>>> labelvalue("VSRGRYRPQEC [B4GALT4_Y113]")
"y"
>>> labelvalue("FKDYFYCWNTF [AICDA_Y146]")
"y"
>>> labelvalue("PTYKHYANSTQ [SLC12A3_Y70_E68K]")
"y"
>>> labelvalue("DDKQPYEKKAA [HMGB1_Y144]")
"y"
>>> labelvalue("AAVNGYAFGGG [ECHS1_Y137]")
"n"
>>> labelvalue("PSDLLYILDIQ [ITGA2B_Y845]")
"y"
>>> labelvalue("SHSMRYFDTAV [HLA-C_Y31]")
"n"
>>> labelvalue("GFAGKYIAMVM [CYP19A1_Y441_C437Y_YF]")
"n"
>>> labelvalue("MKGDYYCYLAE [YWHAG_Y131_R132C]")
"y"
>>> labelvalue("GETEQYVGGGG [FAT4_Y4980_A4977T]")
"n"
>>> labelvalue("ANNQRYAFMPL [TMEM87B_Y460]")
"n"
>>> labelvalue("SLFNGYVYSGM [NEIL3_Y71_V76M]")
"y"
>>> labelvalue("VVVTKYCKEEL [ATP7B_Y1078_A1074V]")
"y"
>>> labelvalue("TSSAVYMNLAS [GATAD2B_Y317_I316V]")
"y"
>>> labelvalue("DNEALYDICFC [TUBB3_Y208_R213C]")
"y"
>>> labelvalue("KFLENYLNRLL [PLD2_Y169_YF]")
"n"
